Multiple publications report pIC50 for Cytochrome P450 2C9 (Homo sapiens, UniProt P11712); what follows is a combined list.
pIC50: −log10 of the molar value.

Short answer please: pIC50, Cytochrome P450 2C9 (Homo sapiens, UniProt P11712), entry CC(=O)Oc1c(Cl)cc(C(=O)N2CCOc3ccccc32)cc1Cl
4.51

Short answer please: pIC50, Cytochrome P450 2C9 (Homo sapiens, UniProt P11712), entry CC(=O)C1=C(C)N(c2cccc(C(F)(F)F)c2)C(=O)N(C)[C@@H]1c1ccc(C#N)cc1-c1ccc(=O)n(C)c1
< 4.30

Short answer please: pIC50, Cytochrome P450 2C9 (Homo sapiens, UniProt P11712), entry Cc1cc(Cl)c2c(c1)N(CCC(=O)O)C(=O)[C@@H](C(C)C)O2
< 4.30

Short answer please: pIC50, Cytochrome P450 2C9 (Homo sapiens, UniProt P11712), entry COc1cnc(C(=O)Nc2ccc(F)c([C@@]3(C)N=C(N)O[C@H]4[C@@H]3OCC4(F)F)c2)cn1
≤ 4.70

----------
pIC50: −log10 of the molar value.
Multiple publications report pIC50 for Cytochrome P450 2C9 (Homo sapiens); what follows is a combined list.

For orientation, consider the following solved cases.
{"molecule": "Cc1cccc2c1OC(c1ccccc1)CN2C(=O)/C=C/C(=O)O (centres unmarked)", "reported.measurement": "< 4.30"}
{"molecule": "O=C(c1ccc(NC2CCC(F)(F)CC2)nc1Cl)c1c[nH]c2ncnc(NC3CC3)c12", "reported.measurement": "5.00 to 5.30"}
{"molecule": "COCc1ccccc1-c1ccccc1[C@H](C)n1cncc1C(=O)N1CCC2NCCO[C@@H]2C1 (some centres unmarked)", "reported.measurement": "< 5.00"}

Short answer please: pIC50, Cytochrome P450 2C9 (Homo sapiens), entry Cc1cc2c(cc1C#Cc1ncccc1S(=O)(=O)Nc1noc(C)c1C)C(C)(C)OC2
< 5.00

Short answer please: pIC50, Cytochrome P450 2C9 (Homo sapiens), entry CNC(=O)c1cc(COc2nnc(Nc3ccc4c(c3)CCC4)c3ccoc23)ccn1
5.40

Short answer please: pIC50, Cytochrome P450 2C9 (Homo sapiens), entry Cc1nc(C)c(-c2csc(NC(=O)Cn3cc(Cl)cn3)n2)s1
< 4.70

----------
Multiple publications report pIC50 for Cytochrome P450 2C9 (Homo sapiens); what follows is a combined list.
pIC50: −log10 of the molar value.

For orientation, consider the following solved cases.
{"compound": "C[C@@]1(c2cc(NC(=O)c3ncc(C#N)cc3F)ccc2F)C=COC(N)=N1", "target.or.system": "Cytochrome P450 2C9 (Homo sapiens)", "pIC50": "< 4.70"}
{"compound": "Cc1cc(C(=O)N2CCOc3ccccc32)cc(C)c1O", "target.or.system": "Cytochrome P450 2C9 (Homo sapiens)", "pIC50": 5.40}
{"compound": "CC(C)(O)c1cc(F)c(-c2cnc(C(C)(C)O)c(N)c2)cc1N", "target.or.system": "Cytochrome P450 2C9 (Homo sapiens)", "pIC50": "< 4.30"}

Short answer please: pIC50, Cytochrome P450 2C9 (Homo sapiens), entry COc1cc2c(NC3CCOCC3)nc(N3CCC3)nc2cc1OCCCN1CCCC1
< 4.00

Short answer please: pIC50, Cytochrome P450 2C9 (Homo sapiens), entry O=C(c1cc(Cl)cc(Cl)c1O)N1CCOc2ccccc21
5.30

Short answer please: pIC50, Cytochrome P450 2C9 (Homo sapiens), entry C[C@H](c1ccc(F)cc1)n1cncc1CN1CCN(S(=O)(=O)c2cnc(N3CC[C@@H](N)[C@H](F)C3)s2)CC1
5.67

Short answer please: pIC50, Cytochrome P450 2C9 (Homo sapiens), entry Clc1ccc(NC2=NN=C(OCc3ccncc3)C3SC=CC23)cc1 (stereo not drawn)
6.34

Short answer please: pIC50, Cytochrome P450 2C9 (Homo sapiens), entry C[C@H]1SC(N)=N[C@](C)(c2cccc(NC(=O)c3ccc(C#N)cn3)c2)[C@H]1F
≤ 4.70

Short answer please: pIC50, Cytochrome P450 2C9 (Homo sapiens), entry NC(=O)c1nc(-c2c(Cl)cccc2Cl)oc1Nc1ccc(C(=O)N2CCS(=O)(=O)CC2)c(F)c1
< 4.52
